Biological target: equine serum butyrylcholinesterase (BChE, EC 3.1.1.8) (Equus caballus, UniProt P81908)
Construct: equine serum butyrylcholinesterase (BChE, EC 3.1.1.8); purchased Sigma-Aldrich (USA); host or cells: equine serum
Sequence (P81908 whole entry): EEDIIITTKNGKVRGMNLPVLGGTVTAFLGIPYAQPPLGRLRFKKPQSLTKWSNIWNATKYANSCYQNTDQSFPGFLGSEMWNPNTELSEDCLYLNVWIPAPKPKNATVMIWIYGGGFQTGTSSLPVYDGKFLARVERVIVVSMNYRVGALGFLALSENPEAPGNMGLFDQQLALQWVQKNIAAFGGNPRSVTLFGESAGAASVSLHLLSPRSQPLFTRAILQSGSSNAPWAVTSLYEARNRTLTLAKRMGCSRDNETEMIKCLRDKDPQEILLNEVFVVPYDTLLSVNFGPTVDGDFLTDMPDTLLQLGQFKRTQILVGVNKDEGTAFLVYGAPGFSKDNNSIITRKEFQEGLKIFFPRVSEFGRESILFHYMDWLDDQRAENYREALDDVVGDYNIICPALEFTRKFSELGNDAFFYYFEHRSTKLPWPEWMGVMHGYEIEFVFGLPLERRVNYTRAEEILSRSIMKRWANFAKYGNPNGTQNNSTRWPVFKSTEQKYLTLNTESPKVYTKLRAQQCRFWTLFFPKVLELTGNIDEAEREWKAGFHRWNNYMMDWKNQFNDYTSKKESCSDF
Test: biochemical
Type: biochemical
Settings: mean ± SD, n = 3; read-out: IC50 (µM) BChE
test.readout: IC50

// below: answered molecules
1. Cc1cccn2cc(C34CC5CC(CC(C5)C3)C4)nc12.O    706 µM
2. Cc1cccn2cc(-c3ccc(-c4ccccc4)cc3)nc12    315 µM
3. Cc1ccc2nc(C34CC5CC(CC(C5)C3)C4)cn2c1    > 2000 µM
4. Cc1cccn2cc(-c3ccc(Cl)c(Cl)c3)nc12    191 µM
5. COc1ccc(-c2cn3ccccc3n2)cc1    > 2000 µM

Measured IC50, `Clc1ccn2cc(C34CC5CC(CC(C5)C3)C4)nc2c1` : > 2000 µM

Documented IC50 of `c1ccc(-c2ccc(-c3cn4ccccc4n3)cc2)cc1` : > 2000 µM

Reported IC50 of `Cc1ccc2nc(-c3ccc(-c4ccccc4)cc3)cn2c1` : 496 µM

molecule `Clc1cccn2cc(-c3ccc(-c4ccccc4)cc3)nc12` , IC50 observed: > 2000 µM

So, `Cc1cccn2cc(-c3ccc(Cl)cc3)nc12` ? Its IC50 was 722 µM

Short answer for `Cc1cccn2cc(-c3ccc(Br)cc3)nc12` : IC50 was > 2000 µM

Per the records, this molecule ( `Cc1ccn2cc(C34CC5CC(CC(C5)C3)C4)nc2c1.O` ) has IC50 equal to > 2000 µM

For record c1ccn2cc(C34CC5CC(CC(C5)C3)C4)nc2c1 [Compound 2a, 2-(adamantan-1-yl)imidazo[1,2-a]pyridine] the listed IC50 is > 2000 µM

Entry `COc1ccc(-c2cn3cccc(C)c3n2)cc1` , IC50 reported as > 2000 µM

###

Target: equine serum butyrylcholinesterase (BChE, EC 3.1.1.8) (Equus caballus)
Construct: equine serum butyrylcholinesterase (BChE, EC 3.1.1.8); purchased Sigma-Aldrich (USA); host or cells: equine serum
Assay: biochemical
Type: biochemical
Conditions: average of three reads; read-out: BChE IC50 (µM) Average
test.readout: IC50 (µM)
The reply should contain only the number, in µM.

The value of IC50 measured for the compound Cc1cccn2cc(-c3ccc(Cl)c(Cl)c3)nc12 [Compound 2k] turned out to be 191

###

Target: equine serum butyrylcholinesterase (BChE, EC 3.1.1.8) (Equus caballus, UniProt P81908)
Construct: equine serum butyrylcholinesterase (BChE, EC 3.1.1.8); purchased Sigma-Aldrich (USA); host or cells: equine serum
Assay: biochemical
Type: biochemical
Conditions: N = 3; unit not given (µg/mL scale); read-out: BChE IC50, Tukey HSD homogeneous subsets (group mean) (converted)
Excerpt: Ellman’s colorimetric method with minor modification was employed in the determination of AChE and BChE inhibitory activities. Electric eel acetylcholinesterase (AChE, EC 3.1.1.7), equine serum butyrylcholinesterase (BChE, EC 3.1.1.8), 5,5′-Dithiobis(2-nitrobenzoic acid) (DTNB) and sodium phosphate dibasic (Na2HPO4) were purchased from Sigma-Aldrich (USA). […]
test.readout: IC50 (µM)
Response body: numeric value in µM, unit text excluded.

Known IC50 results, listed for orientation:
1) Cc1cccn2cc(-c3ccc(Cl)c(Cl)c3)nc12 [Compound 2k]    197
2) Clc1ccc(-c2cn3ccccc3n2)cc1Cl [Compound 2j]    75.6
3) Cc1cccn2cc(-c3ccc(-c4ccccc4)cc3)nc12 [Compound 2g]    315
4) Cc1cccn2cc(C34CC5CC(CC(C5)C3)C4)nc12.O [Compound 2b]    663

IC50 measured on Cc1cccn2cc(-c3ccc(Cl)cc3)nc12 [Compound 2n] = 737

Entry Cc1ccc2nc(-c3ccc(-c4ccccc4)cc3)cn2c1 [Compound 2h] ; IC50 = 484

###

Molecular target: Electric eel acetylcholinesterase (AChE, EC 3.1.1.7) (Electrophorus electricus, UniProt O42275)
Construct: purchased Sigma-Aldrich (USA)
Sequence (O42275 24-633): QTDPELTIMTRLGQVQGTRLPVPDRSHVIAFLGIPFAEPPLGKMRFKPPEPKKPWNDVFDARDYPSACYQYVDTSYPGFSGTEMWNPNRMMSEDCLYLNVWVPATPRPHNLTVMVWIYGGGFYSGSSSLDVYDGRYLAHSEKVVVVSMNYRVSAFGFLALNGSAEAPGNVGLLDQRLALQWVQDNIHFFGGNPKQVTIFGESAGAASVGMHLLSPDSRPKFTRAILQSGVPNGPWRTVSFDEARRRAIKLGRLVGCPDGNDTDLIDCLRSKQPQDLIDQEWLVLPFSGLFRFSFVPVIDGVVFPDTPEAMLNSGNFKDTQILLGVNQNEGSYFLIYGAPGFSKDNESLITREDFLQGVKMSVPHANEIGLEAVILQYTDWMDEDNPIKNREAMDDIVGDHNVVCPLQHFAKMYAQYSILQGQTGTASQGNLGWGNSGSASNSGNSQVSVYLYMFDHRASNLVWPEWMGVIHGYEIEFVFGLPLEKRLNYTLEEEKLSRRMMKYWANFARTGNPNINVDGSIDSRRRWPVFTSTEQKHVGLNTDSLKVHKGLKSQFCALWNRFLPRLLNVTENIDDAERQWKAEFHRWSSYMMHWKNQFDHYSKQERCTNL
Assay: biochemical
Settings: mean ± SD, n = 3; read-out: IC50 (µM) AChE
From the text: Ellman’s colorimetric method with minor modification was employed in the determination of AChE and BChE inhibitory activities. Electric eel acetylcholinesterase (AChE, EC 3.1.1.7), equine serum butyrylcholinesterase (BChE, EC 3.1.1.8), 5,5′-Dithiobis(2-nitrobenzoic acid) (DTNB) and sodium phosphate dibasic (Na2HPO4) were purchased from Sigma-Aldrich (USA). […]
test.readout: IC50 (µM)
Write down the numeric answer in µM and omit the unit.

Solved entries (count: 2):
1. c1ccc(-c2ccc(-c3cn4ccccc4n3)cc2)cc1 [Compound 2f]    208
2. Cc1cccn2cc(-c3ccc(-c4ccccc4)cc3)nc12 [Compound 2g]    288

Next:
Value of IC50 reported for the compound Cc1ccn2cc(C34CC5CC(CC(C5)C3)C4)nc2c1.O [Compound 2c] is 270

###

Catalogue of compounds with associated IC50
Molecular target: Electric eel acetylcholinesterase (AChE, EC 3.1.1.7) (Electrophorus electricus, UniProt O42275)
Construct: purchased Sigma-Aldrich (USA)
Test: biochemical
Conditions: first read; read-out: AChE IC50 (µM) First read
Value expressed in µM; do not type the unit.

Summary for this compound, Cc1cccn2cc(C34CC5CC(CC(C5)C3)C4)nc12.O [Compound 2b] : IC50 is 721

Field IC50 (entry c1ccc(-c2ccc(-c3cn4ccccc4n3)cc2)cc1 [Compound 2f] ) reads 228

# IC50 of Clc1cccn2cc(-c3ccc(-c4ccccc4)cc3)nc12 [Compound 2i] = 269

Briefly, IC50 measured for Cc1cccn2cc(-c3ccc(-c4ccccc4)cc3)nc12 [Compound 2g] : 343

Kindly note the recorded IC50 for Cc1ccc2nc(-c3ccc(-c4ccccc4)cc3)cn2c1 [Compound 2h] , which is 83.8

Short answer for Cc1ccn2cc(C34CC5CC(CC(C5)C3)C4)nc2c1.O [Compound 2c] : IC50 was 293

###

Listed here are compounds together with their documented IC50.
Target: Electric eel acetylcholinesterase (AChE, EC 3.1.1.7) (Electrophorus electricus)
Construct: purchased Sigma-Aldrich (USA)
Test: biochemical
Settings: average of three reads; read-out: AChE IC50 (µg/mL) Average (converted)
Report the value in µM with no unit label.

Sample records with IC50:
1. Cc1cccn2cc(C34CC5CC(CC(C5)C3)C4)nc12.O    614
2. Cc1cccn2cc(-c3ccc(-c4ccccc4)cc3)nc12    288

Now consider the entry below.
IC50 in this record for `Clc1cccn2cc(-c3ccc(-c4ccccc4)cc3)nc12` : 253

###

Biological target: equine serum butyrylcholinesterase (BChE, EC 3.1.1.8) (Equus caballus, UniProt P81908)
Construct: equine serum butyrylcholinesterase (BChE, EC 3.1.1.8); purchased Sigma-Aldrich (USA); host or cells: equine serum
Assay: biochemical
Format: biochemical
Settings: average of three reads; read-out: BChE IC50 (µM) Average
Description: Ellman’s colorimetric method with minor modification was employed in the determination of AChE and BChE inhibitory activities. Electric eel acetylcholinesterase (AChE, EC 3.1.1.7), equine serum butyrylcholinesterase (BChE, EC 3.1.1.8), 5,5′-Dithiobis(2-nitrobenzoic acid) (DTNB) and sodium phosphate dibasic (Na2HPO4) were purchased from Sigma-Aldrich (USA). […]
test.readout: IC50 (µM)
Field format: number, assumed µM, no unit text.

Take a look at these entries with their results.
1. Cc1cccn2cc(-c3ccc(-c4ccccc4)cc3)nc12    315
2. Cc1cccn2cc(C34CC5CC(CC(C5)C3)C4)nc12.O    706

// next entry
The molecule identified as `Cc1ccc2nc(-c3ccc(-c4ccccc4)cc3)cn2c1` registered its IC50 at 496
